Taken from patent US7399639B2.

assay: Protonation constants that affect fluorescence of Zinpyr dyes; assay type: physicochemical; conditions: aqueous solution of 100 mM KCl, 10 mM KOH, Zinpyr-6 value estimated from preliminary results; read-out: apparent pKa, second protonation event (fluorescence enhancement; aniline nitrogen)
reportedProperty: pKa

Task: Name the recorded pKa of the compound listed here: O=C(O)c1ccccc1-c1c2cc(Cl)c(=O)cc-2oc2c(CNc3ccc(Cl)cc3CN(Cc3ccccn3)Cc3ccccn3)c(O)ccc12 [Zinpyr-6]
Output: ~6.4

----------
assay: Protonation constants that affect fluorescence of Zinpyr dyes; type: physicochemical; settings: aqueous solution of 100 mM KCl, 10 mM KOH, Zinpyr-6 value estimated from preliminary results; read-out: apparent pKa, third protonation event (fluorescence quenching)
reportedProperty: pKa

Task: Name the recorded pKa of the molecule listed here: O=C(O)c1ccccc1-c1c2cc(Cl)c(=O)cc-2oc2c(CNc3ccc(Cl)cc3CN(Cc3ccccn3)Cc3ccccn3)c(O)ccc12
Output: ~4.6
